Test protocol: Oral bioavailability in ICR mouse at 10 mg/kg
Type: ADME, organism-based
Recorded conditions: in vivo
Readout: bioavailability

query: Recorded bioavailability of CCCCCCOP(=O)(O)C1=C[C@@H](OC(CC)CC)[C@H](NC(C)=O)[C@@H](NC(=N)N)C1 , please.
result: 12.6%

----------
Test protocol: Apparent total clearance in ICR mouse at 10 mg/kg
Assay type: ADME, organism-based
Design: dose 10 mg/kg
Recorded conditions: in vivo, read-out: CLt/F (converted)
Readout: CL/F
Answer format: value, then unit.

query: Recorded CL/F of CCCCCCOP(=O)(O)C1=C[C@@H](OC(CC)CC)[C@H](NC(C)=O)[C@@H](NC(=N)N)C1 , please.
result: 11.1 L/h/kg

----------
Test protocol: Tmax in ICR mouse at 10 mg/kg
Type: ADME, organism-based
Set-up: dose 10 mg/kg
Recorded conditions: in vivo
Readout: Tmax

query: Recorded Tmax of CCCCCCOP(=O)(O)C1=C[C@@H](OC(CC)CC)[C@H](NC(C)=O)[C@@H](NC(=N)N)C1 , please.
result: 1 h

----------
Assay system: Neuraminidase (Influenza A virus)
Sequence (B4URF0 whole entry): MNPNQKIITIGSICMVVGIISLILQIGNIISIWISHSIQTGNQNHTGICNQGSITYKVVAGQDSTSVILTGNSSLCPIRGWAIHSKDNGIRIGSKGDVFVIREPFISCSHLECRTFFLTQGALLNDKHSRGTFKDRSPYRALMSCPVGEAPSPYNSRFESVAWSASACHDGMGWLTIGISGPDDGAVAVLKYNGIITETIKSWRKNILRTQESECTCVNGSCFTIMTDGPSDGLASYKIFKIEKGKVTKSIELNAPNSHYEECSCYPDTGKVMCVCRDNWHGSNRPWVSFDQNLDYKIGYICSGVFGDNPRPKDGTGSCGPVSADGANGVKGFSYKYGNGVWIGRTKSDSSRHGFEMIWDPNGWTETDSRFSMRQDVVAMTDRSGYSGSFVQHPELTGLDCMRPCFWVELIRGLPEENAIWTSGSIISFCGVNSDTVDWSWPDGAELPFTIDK
Readout: pIC50
Lab note — pIC50 values are minus log10 of concentrations in M.

Here's what some known entries look like.
CCC(CC)O[C@@H]1C=C(P(=O)(O)OCCCc2c[nH]c3ccccc23)C[C@H](N)[C@H]1NC(C)=O 8.77
CCC(CC)O[C@@H]1C=C(P(=O)(O)OCCCc2ccccc2)C[C@H](NC(=N)N)[C@H]1NC(C)=O 8.49
CCCCCCOP(=O)(O)C1=C[C@@H](OC(CC)CC)[C@H](NC(C)=O)[C@@H](N)C1 8.66
CCC(CC)O[C@@H]1C=C(P(=O)(O)OCCCc2ccccc2)C[C@H](N)[C@H]1NC(C)=O 8.74
CCCCOP(=O)(O)C1=C[C@@H](OC(CC)CC)[C@H](NC(C)=O)[C@@H](NC(=N)N)C1 8.17

query: Recorded pIC50 of CCCCCCOP(=O)(O)C1=C[C@@H](OC(CC)CC)[C@H](NC(C)=O)[C@@H](NC(=N)N)C1 , please.
result: 8.39

query: Now consider CCCCOP(=O)(O)C1=C[C@@H](OC(CC)CC)[C@H](NC(C)=O)[C@@H](N)C1 .
result: 8.16

----------
Test protocol: Terminal half life in ICR mouse at 0.25 mg/kg, iv
Assay type: ADME, organism-based
Set-up: dose 0.25 mg/kg, route intravenous
Recorded conditions: in vivo, read-out: beta t1/2 (converted)
Readout: half-life (min)
Use min as the unit, but write only the number.

query: Recorded half-life of CCCCCCOP(=O)(O)C1=C[C@@H](OC(CC)CC)[C@H](NC(C)=O)[C@@H](NC(=N)N)C1 , please.
result: 21.6

----------
Test protocol: Apparent octanol-phosphate buffer partition coefficient, log D of the compound at 1 mg at pH 7.4 after 24 hrs by HPLC analysis
Format: physicochemical
# logD at 24 h annotations

CCCCOP(=O)(O)C1=C[C@@H](OC(CC)CC)[C@H](NC(C)=O)[C@@H](NC(=N)N)C1 -0.16

query: Recorded logD at 24 h of CCC(CC)O[C@@H]1C=C(P(=O)(O)OCCCc2ccccc2)C[C@H](NC(=N)N)[C@H]1NC(C)=O , please.
result: 0.66

query: Now consider CCCCCCOP(=O)(O)C1=C[C@@H](OC(CC)CC)[C@H](NC(C)=O)[C@@H](NC(=N)N)C1 .
result: 0.63

query: Now consider CCC(CC)O[C@@H]1C=C(P(=O)(O)OCCCc2ccccc2)C[C@H](N)[C@H]1NC(C)=O .
result: 0.28

query: Now consider CCCCOP(=O)(O)C1=C[C@@H](OC(CC)CC)[C@H](NC(C)=O)[C@@H](N)C1 .
result: -0.29

query: Now consider CCCCCCOP(=O)(O)C1=C[C@@H](OC(CC)CC)[C@H](NC(C)=O)[C@@H](N)C1 .
result: 0.3

----------
Test protocol: AUC (0 to 12 hrs) in ICR mouse at 10 mg/kg, po
Assay type: ADME, organism-based
Parameters: time < 12 hr, dose 10 mg/kg, route oral
Recorded conditions: plasma
Readout: AUC(0-t) at 12 h (ng·h/mL)
Use ng·h/mL as the unit, but write only the number.

query: Recorded AUC(0-t) at 12 h of CCCCCCOP(=O)(O)C1=C[C@@H](OC(CC)CC)[C@H](NC(C)=O)[C@@H](NC(=N)N)C1 , please.
result: 361

----------
Test protocol: Terminal half life in ICR mouse at 10 mg/kg, po
Type: ADME, organism-based
Parameters: dose 10 mg/kg, route oral
Recorded conditions: in vivo, read-out: beta t1/2 (converted)
Readout: half-life (h)
Use h as the unit, but write only the number.

query: Recorded half-life of CCCCCCOP(=O)(O)C1=C[C@@H](OC(CC)CC)[C@H](NC(C)=O)[C@@H](NC(=N)N)C1 , please.
result: 1.07

// provenance: ChEMBL document CHEMBL3259643
